Answer each item with its documented Inhibition.
Tested on: Cryptococcus neoformans
Conditions: Concentration 20 uM; ASSAY_TEST Inhibition of Fungal Growth; detection method Resazurin; Absorption (OD600-OD570); plate type 384well; NBS; CORNING #3640
Description: Antifungal activity against Cryptococcus neoformans H99 ATCC 208821 (CO-ADD:FG_002); MIC in YNB media using NBS plates, by Resazurin OD(600-570)
Results with a measured potency or affinity are listed apart.
A bare number is not enough; add the unit after it.

Enquiry: Which Inhibition is reported for this molecule? COC(=O)C1(C)Cc2cc(OC(C)=O)c(OC(C)=O)cc2N1 (stereo not drawn)
Return: -8.65%

Enquiry: Which value of Inhibition has been reported for O=C(c1ccccc1)c1ccc[nH]1 in the records?
Return: 18.91%

Enquiry: Dear colleague, I am looking for the recorded Inhibition of the following molecule: CC1=CC2C(C(O)CC3(C)C2CC(C)C32OCOC23COCO3)C2(C)C/C(=C/O)C(=O)C=C12 (stereo not drawn)
Return: -16.69%

Enquiry: Form field: reported Inhibition of Cc1cccn2c(S)nnc12
Return: -6.48%

Enquiry: What value of measured Inhibition is listed for CC1CCC(C(C)C)C(NC(=O)c2ccncc2)C1 (stereo not drawn) ?
Return: -11.13%

Enquiry: Form field: reported Inhibition of O=C(O)Cc1ccc(/N=N/c2c(O)c(C(=O)O)cc3ccccc23)cc1
Return: -5.37%

Enquiry: Endpoint output: Inhibition of C=CCc1ccccc1OCC(=O)O . Value?
Return: 1.51%

Enquiry: Can you look up the measured Inhibition of CCC(C)Oc1nc2c(c(=O)n(C)c(=O)n2C)n1C (stereo not drawn) for me?
Return: -11.56%

* * *

Tested on: Klebsiella pneumoniae
Conditions: Concentration 20 uM; ASSAY_TEST Inhibition of Bacterial Growth; detection method Absorption (OD600); MEDIA CAMHB; plate type 384well; NBS; CORNING #3640; time 18 hr
Description: Antibacterial activity against Klebsiella pneumoniae MDR ATCC 70063 (CO-ADD:GN_003); MIC in CAMBH media using NBS plates, by OD(600)
Entries with a potency or affinity are not part of this list.
Threshold rule: Inhibition greater than or equal to 10% is rule met; below that, rule not met.

Enquiry: Check if Inhibition >= 10% (inclusive). Item: CCN(CC)CCNc1c(C)nc(C#N)c(N)[n+]1[O-]
Return: rule not met

Enquiry: Does the reported Inhibition for CCOCc1cc(O)nc(SC)n1 fall at or above the 10% mark?
Return: rule met

Enquiry: Is Inhibition at least 10%? Consider c1ccc(Sc2ncccn2)nc1
Return: rule not met

Enquiry: Record CC(C)N(C(=O)c1cccc([N+](=O)[O-])c1)C(C)C ; criterion: Inhibition no lower than 10%. Met?
Return: rule not met

Enquiry: Is it the case that C(=N\N=c1/nnn(Cc2ccccc2)[nH]1)/c1ccccc1 has Inhibition reaching or exceeding 10%?
Return: rule not met

Enquiry: Please tell me: is the compound O=c1[nH]c2c(cnn2-c2ccc(Cl)cc2)c(=O)n1-c1cccc(Cl)c1 at or over 10% in terms of Inhibition?
Return: rule met

* * *

Test system: Staphylococcus aureus
Experiment: Antibacterial activity against Staphylococcus aureus MRSA ATCC 43300 (CO-ADD:GP_020); MIC in CAMBH media using NBS plates, by Resazurin F(560/590)
Format: functional
Details: Concentration 20 uM, ASSAY_TEST Inhibition of Bacterial Growth, detection method Resazurin, Fluorescence (ex560/em590), MEDIA CAMHB, plate type 384well, CORNING #3640, time 18 hr
measurement.kind: Inhibition (%)
Express the result in % but write the number alone.

Enquiry: Value wanted: Inhibition (Staphylococcus aureus) of entry Sc1nc2ccccc2n2cccc12
Return: 2.5

Enquiry: GET /values?readout=Inhibition&system=Staphylococcus aureus&item= COc1cc(C2NC(=O)C(C#N)=C(Nc3cccc(C)c3)S2)ccc1O (configuration not stated)
Return: 16.64

Enquiry: API: value(readout=Inhibition, system=Staphylococcus aureus) for record N#C/C(=C\c1ccc[nH]1)C(=O)c1ccccc1
Return: 9.96

Enquiry: Value wanted: Inhibition (Staphylococcus aureus) of entry NNC(=O)CNc1cccc(Br)c1
Return: 11.03

Enquiry: Param readout= Inhibition; system= Staphylococcus aureus; entry= O=c1cc(-c2cccnc2)oc2c1ccc1ccccc12 ; returns value.
Return: 20.75

Enquiry: Reported Inhibition for Staphylococcus aureus, given [O-][n+]1nc2ccccc2c2ccccc21 ?
Return: 3.86

Enquiry: Form field - read-out: Inhibition; system: Staphylococcus aureus; submitted item: Cc1nc(S)nc(O)c1Cc1c(O)ccc2ccccc12
Return: -11.57

Enquiry: API: value(readout= Inhibition, system= Staphylococcus aureus, query= C=CCNC(=S)NCC=C )
Return: 10.5

Enquiry: Give recorded Inhibition with Staphylococcus aureus for the following compound: CC1=NCC(C)c2ccccc21 (configuration not stated)
Return: 18.64

Enquiry: Inhibition of CC12C(=O)N(c3nccs3)C(=O)C1(C)C1CCC2O1 (configuration not stated) on Staphylococcus aureus?
Return: 6.57

Enquiry: Given the entry Cc1cccn2c(S)nnc12 , what Inhibition was observed with Staphylococcus aureus?
Return: 10.19

Enquiry: Fill in the recorded Inhibition for this compound, with Staphylococcus aureus as test system: CN(C)S(=O)(=O)N1C(=O)c2ccccc2C1=O
Return: 5.4

Enquiry: Tell me reported Inhibition for OC1(Cc2ccccc2)CCNCC1 , tested with Staphylococcus aureus.
Return: 8.09

Enquiry: API: value(readout=Inhibition, system=Staphylococcus aureus) for record CN(c1cccnc1)c1[nH]cnc2nncc1-2
Return: -13.03

Enquiry: Record lookup: for Staphylococcus aureus, what Inhibition belongs to CCCSc1nc2c(c(=O)n(C)c(=O)n2C)n1C ?
Return: 3.15

Enquiry: Query the reported Inhibition for Staphylococcus aureus; item: CCCOc1ccc(-c2nc(-c3ccc(N)cc3)cs2)cc1
Return: 6.42

Enquiry: Please state recorded Inhibition (tested on Staphylococcus aureus) of c1ccc(CSc2nc3c[nH]cnc-3n2)cc1
Return: 8.72

Enquiry: Find Inhibition (Staphylococcus aureus) for the entry CN(C)S(=O)(=O)Nc1ccccn1
Return: 6.72

Enquiry: Lookup: Inhibition / Staphylococcus aureus / COc1cc(/C=C2\CCOC2=O)cc(OC)c1OC
Return: 4.75

Enquiry: For Staphylococcus aureus, provide Inhibition of O=C1c2ccccc2C(=Cc2cccnc2)c2ccccc21 please.
Return: 8.79

Enquiry: Enter reported Inhibition observed with Staphylococcus aureus for COc1ccc(/N=C\c2c(O)ccc3c2oc2cc(Cl)c(O)c(Cl)c23)cc1
Return: -3.23

Enquiry: Please provide the recorded Inhibition for CSc1nc(C)cc(S)n1 , tested on Staphylococcus aureus.
Return: 0.72

Enquiry: Lookup: Inhibition / Staphylococcus aureus / O=C1COc2cccnc2N1
Return: 8.1

Enquiry: Under Staphylococcus aureus: Inhibition value of CSc1nc(S)c2[nH]c(S)nc2n1 ?
Return: 13.61

Enquiry: Hi! What's the reported Inhibition for CCOC(=O)C1C(=O)C(=O)N(C(C)C)C1C(=O)OCC (configuration not stated) on Staphylococcus aureus?
Return: 9.9

Enquiry: Recorded Inhibition for Cc1c(CCO)c(=O)n2n1CCCC2 with Staphylococcus aureus, please?
Return: -14.7

Enquiry: What measured Inhibition is associated with O=C1Nc2ccccc2C1(c1ccc(O)cc1)c1ccc(O)cc1 on Staphylococcus aureus?
Return: 24.64

* * *

System: Acinetobacter baumannii
Assay: Antibacterial activity against Acinetobacter baumannii ATCC 19606 (CO-ADD:GN_034); MIC in CAMBH media using NBS plates, by Resazurin F(560/590)
Type: functional
Conditions: Concentration 20 uM, ASSAY_TEST Inhibition of Bacterial Growth, detection method Resazurin, Fluorescence (ex560/em590), MEDIA CAMHB, plate type 384well, CORNING #3640, time 18 hr
I'd appreciate it if you could supply Inhibition values for the items below.

Enquiry: Tell me the measured Inhibition of O=[N+]([O-])c1cccnc1Oc1cccnc1 , please.
Return: -14.38%

Enquiry: Given the entry Oc1ncc(I)cc1I , report its measured Inhibition.
Return: 6.08%

Enquiry: Reported Inhibition for O=c1c(-c2ccc(O)cc2)coc2cc(O)cc(O)c12 : what is it?
Return: 1.42%

Enquiry: # lookup: Inhibition of CN(C)S(=O)(=O)Nc1cccc(Br)c1
Return: -10.63%

Enquiry: What does the record list as Inhibition for COC(=O)c1cc2c(n1S(=O)(=O)c1ccc(C)cc1)C(=O)C(=O)c1[nH]cc(C(=O)OCc3ccccc3)c1-2 ?
Return: -9.93%

* * *

Tested on: Acinetobacter baumannii
Assay: Antibacterial activity against Acinetobacter baumannii ATCC 19606 (CO-ADD:GN_034); MIC in CAMBH media using NBS plates, by Resazurin F(560/590)
Format: functional
Settings: Concentration 20 uM, ASSAY_TEST Inhibition of Bacterial Growth, detection method Resazurin, Fluorescence (ex560/em590), MEDIA CAMHB, plate type 384well, CORNING #3640, time 18 hr
measurement.kind: Inhibition (%)
Number only, in %; omit the unit.

Enquiry: Give the measured Inhibition of Cn1c(N)c(/N=N/c2ccc(S(N)(=O)=O)cc2)c(=O)n(C)c1=O .
Return: 4.45

Enquiry: Which Inhibition reading was recorded for the molecule O=C(O)c1cccc2c1C(=O)c1cccc3snc-2c13 ?
Return: 8.28

Enquiry: I have this molecule here, CCOc1nc(OCC)c2cnn(C)c2n1 , and I need its recorded Inhibition.
Return: -11.25

Enquiry: # lookup: Inhibition of CCOc1ccc(NC(=O)C2CCCN(C)C2)cc1 (configuration not stated)
Return: 6.87

Enquiry: May I ask what Inhibition has been recorded for Oc1ccccc1-c1nnco1 ?
Return: -3.75

Enquiry: Please give the measured Inhibition for this molecule: CCOC(=O)c1ccc(NC(=O)Oc2cc(C)c(Cl)cc2C(C)C)cc1
Return: 9.47

Enquiry: I'd like to know its Inhibition. The molecule in question is CCOC(=O)c1nn(C)c2[nH]c(=O)n(C)c(=O)c12
Return: 11.46

Enquiry: Can you share its Inhibition? I mean this molecule: O=c1c2ccccc2ncn1-c1ccc(Cl)cc1
Return: -18.47

Enquiry: Report Inhibition for Cc1cc(S)nc(S)n1 please.
Return: -5.84

Enquiry: Which Inhibition reading was recorded for the molecule CC(=O)c1c(O)c(C)c(O)c2c1OC1=CC(=O)/C(=C(/C)N)C(=O)C12C (configuration not stated) ?
Return: 6.34

Enquiry: Request the reported Inhibition associated with O=c1oc(-c2ccccc2)c(-c2ccccc2)c2ccccc12
Return: 4.08

Enquiry: Look at this molecule and give its reported Inhibition. C(=N\n1cnnc1)/c1ccc2c(c1)CCC2
Return: -8.61

Enquiry: Tell me the measured Inhibition of S=c1c2nc[nH]c2ncn1CCSC1=NC=NC2=NC=NC21 (configuration not stated) , please.
Return: -14.19

Enquiry: Please give the measured Inhibition for this molecule: CC12CCC(/C(=N/c3ccc(/N=C4\C(=O)C5(C)CCC4C5(C)C)cc3)C1=O)C2(C)C
Return: -9.62

Enquiry: Consider the molecule Cc1nccnc1Sc1ccccc1 and give its measured Inhibition.
Return: -12.89

Enquiry: For O=[N+]([O-])c1ccccc1CSc1nc(O)c2nc[nH]c2n1 , what is its reported Inhibition?
Return: 9.09

Enquiry: Requested field: Inhibition. Item: C#CCOCC1CN(c2ccccc2)C(=O)O1 (configuration not stated)
Return: 12.08

Numbers sourced from ChEMBL document CHEMBL4296182.
